Provide the reported melting point of each item.

Quote melting point reported for Cc1ccc2c(c1)CCC1=C2CCC(=O)N1C please. 122 °C

Quote melting point reported for OC/C=C/C=C/c1ccc(OCC(F)(F)C(F)F)cc1 please. 95 to 97 °C

Quote melting point reported for O=C(O)CN1CC2(CCCCC2)N(c2ccccc2)CC1=O please. 167 to 169 °C

Quote melting point reported for CCC(C)(C)C(=O)NNc1cc(NC(=O)CC(C)(C)C)cc(NC(=O)CC(C)(C)C)c1 please. 332 to 334 °C

Quote melting point reported for COc1cccc(CC(c2ccccc2)N(CCO)CCO)c1 (stereo unspecified) please. 67 to 69 °C

Quote melting point reported for COC(=O)C1=NNC(C)=C(C(=O)OC)C1c1ccc(OC)cc1 (stereo unspecified) please. 154 °C

Quote melting point reported for CN(C)Cc1c(-c2ccccc2)oc2c(CO)cccc2c1=O please. 150 °C

Quote melting point reported for CSc1ccccc1-c1[nH]c2cccc3c2c1CCNC3=O please. 271 to 272 °C

Quote melting point reported for N#CCc1cccc2c(-c3ccc(C(F)(F)F)cc3)nccc12 please. 122 to 123 °C

Quote melting point reported for CCOC(=O)C1=C(C)NC(c2c(F)cc(F)cc2F)=NC1c1ccc(F)cc1Cl (stereo unspecified) please. 184 to 186 °C

Quote melting point reported for CCCC(=O)c1c[nH]c2cc(COC(=O)c3ccccc3)ccc2c1=O please. 228 to 231 °C

Quote melting point reported for NNc1ccc([N+](=O)[O-])cc1S(N)(=O)=O please. 209 to 210 °C

Quote melting point reported for c1ccc(N=C2CCCCN2)c(CN2CCOCC2)c1 please. 108 to 110 °C

Quote melting point reported for CC(=O)NC[C@H]1CN(c2ccc(N3CCC(n4cccc4)CC3)c(F)c2)C(=O)O1 please. 208 to 210 °C

Quote melting point reported for CC(C)N1CCN(c2ccc(OCCCCCCC(O)(Cn3ccnc3)c3ccc(Cl)cc3Cl)cc2)CC1 (stereo unspecified) please. 143 to 145 °C

Quote melting point reported for OCCSc1ccc2cc(SCCO)ccc2c1 please. 113 to 117 °C

Quote melting point reported for O=C(O)c1ccc2c(c1)S(=O)(=O)c1ccc([N+](=O)[O-])cc1C2=O please. > 360 °C

Quote melting point reported for Cc1oc(-c2ccccc2)nc1CCOc1ccc(/C=C/C=C/CO)cc1 please. 132 to 133 °C

Quote melting point reported for O=C(O)C(Cc1ccccc1)Nc1cc(-c2ccc(OCc3ccccc3)nc2)ncn1 (stereo unspecified) please. 130 to 133 °C

Quote melting point reported for Cc1nc(N2CCN(CC3CC3)C2=O)sc1C(=O)NCc1cccnn1 please. 187 to 189 °C

Quote melting point reported for COCCc1nc2c(N)nc3c(c2n1CCCNC(=O)c1ccccc1)CCCC3 please. 168 to 170 °C
